B1: Homeobox protein cut-like 1, residues 548 to 629; numbered along this chain, P39880 (parent)
chain: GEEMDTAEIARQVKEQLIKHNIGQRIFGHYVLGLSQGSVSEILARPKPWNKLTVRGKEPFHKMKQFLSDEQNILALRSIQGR

Variants of: B1
Test: abundance fitness (aPCA) (normalised: wild type 0, dead -1); higher = more abundant; growth selection in yeast, the domain comes from the species named
Conditions: Homo sapiens
Each entry gets false (0) if its abundance fitness stays under -0.1, and true (1) if its abundance fitness is -0.1 or above.

[in] abundance fitness >= -0.1 for `K62R` ?
[out] false (0)

[in] abundance fitness >= -0.1 for `E3T` ?
[out] true (1)

[in] abundance fitness >= -0.1 for `P48W` ?
[out] false (0)

[in] abundance fitness >= -0.1 for `Q71D` ?
[out] true (1)

[in] abundance fitness >= -0.1 for `V54P` ?
[out] true (1)

[in] abundance fitness >= -0.1 for `A75V` ?
[out] false (0)

[in] abundance fitness >= -0.1 for `E70R` ?
[out] true (1)

[in] abundance fitness >= -0.1 for `T6L` ?
[out] false (0)

[in] abundance fitness >= -0.1 for `P46A` ?
[out] false (0)

[in] abundance fitness >= -0.1 for `K51D` ?
[out] true (1)

[in] abundance fitness >= -0.1 for `E41N` ?
[out] false (0)

[in] abundance fitness >= -0.1 for `L43P` ?
[out] false (0)

[in] abundance fitness >= -0.1 for `G28M` ?
[out] false (0)

[in] abundance fitness >= -0.1 for `I42W` ?
[out] false (0)

[in] abundance fitness >= -0.1 for `H29G` ?
[out] false (0)

[in] abundance fitness >= -0.1 for `T6G` ?
[out] false (0)

[in] abundance fitness >= -0.1 for `V31S` ?
[out] false (0)

[in] abundance fitness >= -0.1 for `I18F` ?
[out] true (1)

[in] abundance fitness >= -0.1 for `E41K` ?
[out] false (0)

[in] abundance fitness >= -0.1 for `R25D` ?
[out] true (1)

All figures here come from the Human Domainome abundance scans (Beltran et al. 2025).
